Kindly state CC50 at 120 h for each of the entries shown.
# Experiment Description: Cytotoxicity against Human immunodeficiency virus 1 NL4-3 infected in human MT4 cells assessed as reduction in cell viability measured after 5 days by MTT assay
# Format: cell-based
# Condition Set: MT4 cells infected with HIV-1 NL4-3, time 5 day

In the examples that follow, each entry is paired with its recorded CC50 at 120 h.
molecular_string=c1cc(CN2CCCNCCNCCCNCC2)ccc1CN1CCCNCCNCCCNCC1 reported="> 50 µM"
molecular_string=Cc1cn([C@H]2C[C@H](N=[N+]=[N-])[C@@H](CO)O2)c(=O)[nH]c1=O reported="> 50 µM"

Next:
Reported CC50 at 120 h for `COC[C@@H](c1ccc(C(F)(F)F)cc1)N1CCN(C2(C)CCN(C(=O)c3c(C)ncnc3C)CC2)C[C@@H]1C` : what is it?
> 5 µM

---

Kindly supply the reported CC50 at 120 h values for the records listed here.
# Experiment Description: Cytotoxicity against Human immunodeficiency virus 1 NLAD8 infected in human PM1 cells expressing CCR5 assessed as cell viability measured after 5 days by MTT assay
# Format: cell-based
# Condition Set: PM1 cells expressing CCR5 infected with HIV-1 NLAD8, time 5 day

Here is how some compounds turned out for CC50 at 120 h.
compound="c1cc(CN2CCCNCCNCCCNCC2)ccc1CN1CCCNCCNCCCNCC1 [PLERIXAFOR]" reported="> 50 µM"
compound="COC[C@@H](c1ccc(C(F)(F)F)cc1)N1CCN(C2(C)CCN(C(=O)c3c(C)ncnc3C)CC2)C[C@@H]1C [VICRIVIROC]" reported="> 5 µM"

Could you now consider this next compound?
Requested read-out: CC50 at 120 h. Entry: Cc1cn([C@H]2C[C@H](N=[N+]=[N-])[C@@H](CO)O2)c(=O)[nH]c1=O [ZIDOVUDINE]
> 100 µM
